study.target: Fyn (UniProt P06241)
Sequence (P06241 whole entry, looked up): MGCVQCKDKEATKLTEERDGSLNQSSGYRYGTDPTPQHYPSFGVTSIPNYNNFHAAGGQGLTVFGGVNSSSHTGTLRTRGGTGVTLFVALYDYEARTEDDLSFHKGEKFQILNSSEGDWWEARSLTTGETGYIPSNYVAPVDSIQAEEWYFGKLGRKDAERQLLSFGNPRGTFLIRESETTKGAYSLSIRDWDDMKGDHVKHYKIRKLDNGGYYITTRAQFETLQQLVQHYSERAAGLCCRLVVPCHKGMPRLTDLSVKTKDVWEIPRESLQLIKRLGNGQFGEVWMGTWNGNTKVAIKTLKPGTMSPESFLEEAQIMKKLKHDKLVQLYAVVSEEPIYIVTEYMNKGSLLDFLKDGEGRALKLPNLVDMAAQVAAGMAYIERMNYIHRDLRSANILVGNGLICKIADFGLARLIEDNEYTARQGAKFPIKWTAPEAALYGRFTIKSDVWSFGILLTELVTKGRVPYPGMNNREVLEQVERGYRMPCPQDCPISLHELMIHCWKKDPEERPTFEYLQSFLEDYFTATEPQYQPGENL
test.summary: phosphorylation enrichment, bacterial display (enrichment ratio); higher = better substrate or ligand; peptides without Tyr show the background;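 also: 11-residue human phosphosite peptides and single-mutation variants displayed on the E. coli surface, counted by deep sequencing, each peptide's frequency after selection divided by its frequency in the unselected input library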;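 also: frequency after pTyr selection over input frequency; kinase dosed for 20-30% of maximal phosphorylation in three min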
I'd be grateful if you could share measured phosphorylation enrichment for these entries.
Give bare numbers.

Below, each entry is followed by its recorded phosphorylation enrichment result.
>  <entry.sequence>
EKAEVYGSENE [RIOK2_Y348]

>  <readout.kind>
phosphorylation enrichment

>  <result>
0.566

$$$$
>  <entry.sequence>
LNPFIYSLRNC [OR1A2_Y288_W293C]

>  <readout.kind>
phosphorylation enrichment

>  <result>
4.37

$$$$
>  <entry.sequence>
NGPDVYVLPVT [AATK_Y93_L97V]

>  <readout.kind>
phosphorylation enrichment

>  <result>
2.25

$$$$
>  <entry.sequence>
MIHSAYALGGL [CPS1_Y590_R587H]

>  <readout.kind>
phosphorylation enrichment

>  <result>
0.566

$$$$
>  <entry.sequence>
RLEPVYFVAPA [LAMC2_Y250_D247E]

>  <readout.kind>
phosphorylation enrichment

>  <result>
9.5

$$$$

Give phosphorylation enrichment for all sequences that follow.
1. KLADMYGGGKD [CDH1_Y876_E880K]
2. FADGVYQALEE [DUOX2_Y70_YF]
3. YGIAQYCCRMG [LRRK2_Y2023]

Output:
1: 0.425; 2: 3.65; 3: 0.8

Would you be so kind as to report phosphorylation enrichment for each listed record?
1. VVEVTYDDVPI [FLNB_Y1308]
2. KELAKYYKLHH [AK7_Y390_N389K]
3. DLDPNYVLSSR [CKM_Y125]
4. IGLHAYGDQFR [IDH1_Y135_R132L_YF]
5. RQIQSYTCEID [DES_Y331_H326R]
6. FQASFYRRGDR [LTK_Y677_R673Q_YF]
7. AGTIPYHAHLD [ASS1_Y291_L290P]

Output:
1.76
0.35
0.416
0.502
0.642
0.55
0.415

* * *

Test system: c-Src
test.summary: phosphorylation enrichment, bacterial display (enrichment ratio); higher = better substrate or ligand; peptides without Tyr show the background
Answer each item with its documented phosphorylation enrichment.

>  <entry.sequence>
SVSVNYGDQVQ [GRAP_Y101]

>  <phosphorylation enrichment>
0.429

$$$$
>  <entry.sequence>
SHSMRYFDTAV [HLA-C_Y31]

>  <phosphorylation enrichment>
0.367

$$$$
>  <entry.sequence>
PDKRIYQFTAS [SKAP2_Y197_A202S]

>  <phosphorylation enrichment>
0.765

$$$$
>  <entry.sequence>
SAPDSYIGIGN [SLC38A4_Y27]

>  <phosphorylation enrichment>
0.437

$$$$
>  <entry.sequence>
FADIAYNFRHR [PAH_Y166_G171R_YF]

>  <phosphorylation enrichment>
0.415

$$$$
>  <entry.sequence>
IFHLSYHHNCE [PDE6B_Y227_L228H_YF]

>  <phosphorylation enrichment>
0.455

$$$$

Please supply phosphorylation enrichment for each of the following items, keeping them in order.
1. LRAGVYHEKDQ [DNM2_Y626_P627H]
2. SDQRRYSLIDR [CLIP2_Y972]

Output:
0.617
0.358

* * *

Please respond with reported phosphorylation enrichment for every item in the list.
System: AncSZ
test.summary: phosphorylation enrichment, bacterial display (enrichment ratio); higher = better substrate or ligand; peptides without Tyr show the background
Answers are plain numbers.

Some sequences with known phosphorylation enrichment results, for comparison:
>  <entry.sequence>
VTRLWYPVCFG [ITK_Y336_R335W]

>  <result>
1.17

$$$$
>  <entry.sequence>
AGHEEYSAMRD [KRAS_Y64_Q61H]

>  <result>
0.797

$$$$
>  <entry.sequence>
GVLDIYGFEIL [MYO1A_Y382]

>  <result>
1.14

$$$$
>  <entry.sequence>
TLERHYKELQA [SPTBN2_Y834_E835K]

>  <result>
0.713

$$$$

Batch request: phosphorylation enrichment per item, same order as input.
1. VIEQRYNETWL [SLC2A4_Y56_S55R]
2. VRFMANTDETF [F8_Y450_Y450N]
3. MFCAGYDTKQE [F10_Y407]
4. EVDELYREAPI [MYL12B_Y143]
5. IHFAIYLLKYS [ARMC9_Y107]
6. ATPKGYEPDAS [OTC_Y223]

Output:
1: 0.809; 2: 0.928; 3: 1.11; 4: 1.27; 5: 1.09; 6: 0.738

Batch of 3 sequences: report phosphorylation enrichment for each.
1. LEKISYVFMKR [SSX7_Y48_YF]
2. KLADVYQAELR [GFAP_Y116]
3. PGPQSYPIVTG [PAX5_Y299]

Output:
[1.9, 0.789, 0.611]

Hello, I would appreciate it if you could give phosphorylation enrichment for each entry below.
1. YIPSNYVAEDR [FRK_Y104]
2. LWEGSYGKVKE [STK11_Y60_G56W]
3. VNKIYHPDFIV [LIG3_Y768_Y768H]
4. PINLFYLMDLS [ITGB2_Y131_D128N_YF]
5. EWKQNYEESQS [MYH7_Y1460_K1459N]
6. KLCHLYQDHMQ [WNT5A_Y86]

Output:
[0.921, 0.872, 0.62, 1.46, 1.16, 0.654]

Respectfully, I request phosphorylation enrichment for each entry included below.
1. GEHSIYCTVNN [CD55_Y266]
2. CTTIHHNYMCN [TP53_Y234_Y234H]
3. TFAVSYLPDMS [FLNC_Y1602_T1599A_YF]
4. SVVVPYEPPEF [TP53_Y220_V225F]
5. KRLAVYIDEEA [EPM2A_Y304_P301L]
6. TDHLRYFDSNK [ARAP1_Y359]
7. PSQRRNVFFFS [PTEN_Y174_Y174N_YF]
8. IALSKYGRVKR [FGF6_Y186]

Output:
1.55
0.766
0.939
1.01
1.11
1.04
1.31
0.61

Need phosphorylation enrichment for each of these sequences.
1. QNTGDYCDLFG [PTPN11_Y62_Y63C_YF]
2. GETEQYVGGGG [FAT4_Y4980_A4977T]

Output:
1: 3.53; 2: 0.889
